This collection of values is drawn from paper PMC2827632.

- System tested: bovine thioredoxin reductase (Bos taurus)
- Sequence (O62768 1-499): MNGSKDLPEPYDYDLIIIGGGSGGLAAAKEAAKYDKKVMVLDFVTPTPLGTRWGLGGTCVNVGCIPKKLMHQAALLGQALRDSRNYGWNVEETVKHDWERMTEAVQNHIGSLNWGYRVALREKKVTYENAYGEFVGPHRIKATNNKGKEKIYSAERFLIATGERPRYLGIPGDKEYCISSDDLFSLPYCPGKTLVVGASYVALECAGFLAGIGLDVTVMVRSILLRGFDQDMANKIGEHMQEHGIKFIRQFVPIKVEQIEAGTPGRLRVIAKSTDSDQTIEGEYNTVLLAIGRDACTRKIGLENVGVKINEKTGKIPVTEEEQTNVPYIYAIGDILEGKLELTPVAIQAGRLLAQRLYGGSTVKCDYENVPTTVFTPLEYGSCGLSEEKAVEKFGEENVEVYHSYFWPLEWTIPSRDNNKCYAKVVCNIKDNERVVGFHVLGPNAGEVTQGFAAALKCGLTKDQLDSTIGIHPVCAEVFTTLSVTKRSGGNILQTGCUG
- Assay: Bovine thioredoxin reductase DTNB assay
- Assay type: biochemical
- Condition set: IC50 bTR, DTNB assay, 100 μM NADPH
Outcome measure: IC50 (µM)
Numbers only, in µM.

Report IC50 for COc1ccc(C(=O)N2CCC3(CC2)C(=O)N(CC(=O)NCCc2ccc(Cl)cc2Cl)CN3c2ccccc2)c(OC)c1 tested on bovine thioredoxin reductase (Bos taurus).
20
